Multi-source literature compilation: IC50 on Adenosine receptor A2a (Homo sapiens, UniProt P29274).

Look up IC50 for the entries below, preserving their order.
1. Cc1nc2cc(NC(=O)N3CCCC3)nc(-c3ccco3)n2n1
2. Cc1nc2nc(N[C@@H](C)c3cncc(F)c3)nc(C(=O)N3CC(NC(=O)Nc4ccccc4)C3)c2s1
3. Cc1nc2c(-c3ccccc3C)nc(N)c(Cl)n2n1
4. Cc1nc2c3cc[nH]c3nc(-c3ccc(C)o3)n2n1
5. CC(=O)Nc1cc2nc(C3COC3)nn2c(-c2ccc(C)o2)n1

1. 10 to 100 nM
2. < 100 nM
3. 100 to 1000 nM
4. < 10 nM
5. < 10 nM

Value sought for every listed compound: IC50.
1. CCOC(=O)c1cn2cc(NC(=O)C3CC3)nc(-c3ccc(C)o3)c2n1
2. Cc1nc2nc(N[C@@H](C)c3cncc(F)c3)nc(C(=O)N3CC[C@@H](N)C3)c2s1
3. Cc1cn2cc(NC(=O)C3CC3)nc(-c3ccc(C)o3)c2n1
4. Cc1ccc(-c2nc3[nH]c(C(C)(C)O)cc3c3nc(C(F)(F)F)nn23)o1
5. CC(=O)Nc1cc2nc(C)nn2c(-c2cnc(C)o2)n1
6. Cc1nc2c3sc(=O)[nH]c3nc(-c3ccc(C)o3)n2n1
7. Cc1cn2cc(NS(C)(=O)=O)nc(-c3ccco3)c2n1
8. Cc1ccc(-c2nc(NC(=O)C3CC3)cn3nc(Br)nc23)o1

["10 to 100 nM", "> 1000 nM", "< 10 nM", "< 10 nM", "10 to 100 nM", "10 to 100 nM", "100 to 1000 nM", "< 10 nM"]

// input: 4 compounds below; output: IC50 for each
1. Cc1nc2nc(N[C@@H](C)c3cncc(F)c3)nc(C(=O)N3CC(NC(=O)C4CC(F)(F)C4)C3)c2s1
2. Cc1nc2nc(N[C@@H](C)c3cncc(F)c3)nc(C(=O)N3CC(NC(=O)C4CCOC4)C3)c2s1 (stereo partly shown)
3. N#Cc1cccc(-c2nc(N)cnc2-c2cc(Cl)c3ncccc3c2)c1F
4. Cc1cccc(-c2nc(N)c(Cl)n3cc(C)nc23)c1

1. < 100 nM
2. 100 to 1000 nM
3. 3.1 nM
4. 100 to 1000 nM

Could you tell me IC50 for each of these compounds? They are listed below.
1. Cc1nc2c(-c3ccc(F)cc3)nc(N)c(Cl)n2n1
2. CCOC(=O)Nc1cn2cc(C)nc2c(-c2ccco2)n1

1: < 10 nM; 2: 10 to 100 nM
